# run_description: label from the status in PepcDB records
recorded_metric: protein production

Answered examples (5):
{"sequence_record": "MTIVLIAFALYLLATALLTWAVLRDGNQSPARWLAPALAAVALHAGYHVLVAVRTAGGPDMHFFAALSLCGLGMAALTAVFGGRGRMAAVGVVVFPLSAILLASYHAYGHEPSSDLGWRLELHAWLALLAYATLGIAALLAIMLWLQERALRRRDFHSWLRALPPLTELETLLFRTITVGFVLLSLTLLTGLLFVQDFLAQRLLQKTVLSILSWIVFGALLIGRWRNGWRGTKAVHWTLTAMALLVLSFFGSKFVIELVLGPR", "endpoint_value": "failed"}
{"sequence_record": "MKNQSPVPSYEGNVFMIDARDLSIAWSEDSNHWTWLPLPNQNSNTILSSESVMEIAFLKSASWLDVAGKFDTRYLTPRTRYEVVFVVKLEYTFEWETLVKLKLDLPNTWEKPQEQSVDMFDYISDQWLDIPVGEFTTSKKNVGEISFAMYEHECQLWKSGLFVKGVTIRPKY", "endpoint_value": "failed"}
{"sequence_record": "MTINWIQAAILGLFACLCSNSCMAGQAVGNYTIGRPLVGGLVCGIILGDLKLGIACGVAMQLVYIALVTPGGTVSADVRAISYIGIPLAMVAISTKGLDPLGGSAADLAKSVGTLVGTIGTVLFYSVAALNLVWQSFGWKDIKKGKLDHLYAINFGWPWISHLLFSFLPTVILTYFGATAVTAMRDALPMDGLAMKTLFTVGGMLPCVGIAILLRQIVNKNIDFVPFFVGFTLAASLKLNLVSITIIALLFAVIFYKIALIKNNTKLVDSTGSLTNDDEEEDI", "endpoint_value": "failed"}
{"sequence_record": "MATEKYHEILKKYFLSFETGDFSQVQFSCNLEFLSPISGNTLKGTEEVIPFLKGVTTRVAEVNIMSTTVEYPRASGVWQMRTTKGTLYTLHNFFRLDEEGIVYVWPMFDPKAVMENPDALIQWLTGKDY", "endpoint_value": "not failed"}
{"sequence_record": "MKTSLRLEDGTKNSLQIPIDLIIEIFLRLSVNSIARCRCVSKQWASTLSRPYFTELFLTRSLARPKLLFAYRKGSDYLFLSSPQLQNPDDDHKKSSPVVVNYHMHHILTLGSGNMSWRTIQCCIPHRSFDGGICIDGLIYYYAGVNNNDIVIVCFDVRSEEFRFIIGALHHGSLINYNGKLSLYLPSTVYSRFNGVIRSIKLWVLEDAKRQEWSEHTYILPAMHDIMKTTDLRCVGMTQTKEFVFWSIKGMRFYVFYYNIERNTIKKVEMQGMEAFKESNVYTFLDHVEDVKLMQFF", "endpoint_value": "failed"}

Report protein production, nothing else, for this sequence: MSLDNSRTRPRVGHIQFLNCLPLYWGLARTGTLLDFELTKDTPEKLSEQLVRGDLDIGPVTLVEFLKNADDLVAFPDIAVGCDGPVMSCVIVSQVPLDRLDGARVALGSTSRTSVRLAQLLLSERFGVQPDYYTCPPDLSLMMQEADAAVLIGDAALRANMIDGPRYGLDVHDLGALWKEWTGLPFVFAVWAARRDYAEREPVITRKVHEAFLASRNLSLEEVEKVAEQAARWEAFDEDTLAKYFTTLDFRFGAPQLEAVTEFARRVGPTTGFPADVKVELLKPEGHHHHHH
not failed

Note down protein production recorded for EIILANISDTVFVTDLSGKFTFICSNIDNIFGYSLAEVNAMGTVETLLGDFRFNEYELKEKGELKNLRHDVQDKQGKIHYLLINLKKVAINGGIYLYSCRDISE
failed
